SYSTEM TESTED: recombinant human PKM2 (Homo sapiens, UniProt P14618)
Construct: His (N); purchased R&D Systems
Sequence (P14618 2-531 limits assumed): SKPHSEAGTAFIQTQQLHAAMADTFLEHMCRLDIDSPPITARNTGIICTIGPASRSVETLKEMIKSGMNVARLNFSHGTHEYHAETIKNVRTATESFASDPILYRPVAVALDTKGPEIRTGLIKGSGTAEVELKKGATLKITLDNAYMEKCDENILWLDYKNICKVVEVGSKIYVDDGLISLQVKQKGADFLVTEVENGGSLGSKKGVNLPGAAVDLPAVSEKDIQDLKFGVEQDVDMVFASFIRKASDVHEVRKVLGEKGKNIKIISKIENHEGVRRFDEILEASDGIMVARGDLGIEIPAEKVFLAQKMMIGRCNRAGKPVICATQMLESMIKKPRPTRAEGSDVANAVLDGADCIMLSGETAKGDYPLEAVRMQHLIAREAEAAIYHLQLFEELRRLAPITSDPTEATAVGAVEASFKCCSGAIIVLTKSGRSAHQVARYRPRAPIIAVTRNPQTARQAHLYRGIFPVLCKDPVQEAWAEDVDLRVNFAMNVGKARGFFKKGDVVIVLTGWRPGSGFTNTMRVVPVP
ASSAY EXPLANATION: Human PKM2 activation assay (Kinase-Glo Plus luminescent detection of generated ATP)
Assay type: biochemical
EXPERIMENTAL SETUP: percentage activation normalised to DMSO vehicle (LOW) and 5 μM TEPP-46 (HIGH); read-out: hPKM2 Emax
QUANTITY NAME: Emax (%)

>  <COMPOUND>
COc1ccc(Cn2ncc3cc(S(=O)(=O)c4cnc(OC)cn4)ccc3c2=O)cn1

>  <NUMERIC RESULT>
79

$$$$
>  <COMPOUND>
Nc1cccc(Cn2ncc3cc(S(=O)(=O)c4ccc5c(c4)CCO5)ccc3c2=O)c1

>  <NUMERIC RESULT>
104

$$$$
>  <COMPOUND>
O=c1c2ccc(S(=O)(=O)c3ccccc3)cc2cnn1Cc1ccn(C2CC2)n1

>  <NUMERIC RESULT>
99.9

$$$$
>  <COMPOUND>
COc1ccc(S(=O)(=O)c2ccc3c(=O)n(Cc4cc(C(C)C)cnc4O)ncc3c2)cc1

>  <NUMERIC RESULT>
74.5

$$$$
>  <COMPOUND>
O=c1c2cc(NCCO)c(S(=O)(=O)c3ccccc3)cc2cnn1Cc1cccnc1O

>  <NUMERIC RESULT>
96.7

$$$$
>  <COMPOUND>
COc1ccc(Cn2ncc3cc(S(=O)(=O)c4ccc5c(c4)CC(C)(C)O5)ccc3c2=O)cn1

>  <NUMERIC RESULT>
99.4

$$$$
>  <COMPOUND>
Cc1ccc(S(=O)(=O)c2ccc3c(=O)n(Cc4cc[nH]n4)ncc3c2)cn1

>  <NUMERIC RESULT>
106

$$$$
>  <COMPOUND>
CC1Cc2cc(Cn3ncc4cc(S(=O)(=O)c5ccccc5)ccc4c3=O)ccc2O1 (centres unmarked)

>  <NUMERIC RESULT>
96.4

$$$$

---

SYSTEM TESTED: recombinant human PKM2 (Homo sapiens)
Construct: His (N); purchased R&D Systems
ASSAY EXPLANATION: Human PKM2 activation assay (Kinase-Glo Plus luminescent detection of generated ATP)
Assay type: biochemical
EXPERIMENTAL SETUP: recombinant human PKM2 activation; 4-parameter logistic fit; read-out: hPKM2 EC50
Assign classes using reported EC50 values and the ranges bucket A (below 80 nM), bucket B (80 nM to below 500 nM), bucket C (500 nM or more), please.

>  <MOLECULE>
O=c1c2ccc(S(=O)(=O)c3cnccn3)cc2cnn1Cc1cc[nH]n1 [Example 260]

>  <GROUP LABEL>
bucket B

$$$$
>  <MOLECULE>
O=c1c2ccc(S(=O)(=O)c3cc[nH]n3)cc2cnn1Cc1ccc2c(n1)CCO2 [Example 299]

>  <GROUP LABEL>
bucket A

$$$$
>  <MOLECULE>
COc1ncccc1Cn1ncc2cc(S(=O)(=O)c3ccccc3)ccc2c1=O [Example 88]

>  <GROUP LABEL>
bucket C

$$$$
>  <MOLECULE>
NC(=O)c1ccccc1Cn1ncc2cc(S(=O)(=O)c3ccccc3)ccc2c1=O [Example 66]

>  <GROUP LABEL>
bucket B

$$$$
>  <MOLECULE>
Cn1ccc(Cn2ncc3cc([S+]([O-])c4ccccc4)ncc3c2=O)n1 (centres unmarked) [Example 249]

>  <GROUP LABEL>
bucket C

$$$$
>  <MOLECULE>
O=c1c2ccc(S(=O)(=O)c3csc(C4CC4)n3)cc2cnn1Cc1cc[nH]n1 [Example 346]

>  <GROUP LABEL>
bucket A

$$$$
>  <MOLECULE>
Cc1cc(Cn2ncc3cc(S(=O)(=O)c4csc(C)n4)ccc3c2=O)n[nH]1 [Example 358]

>  <GROUP LABEL>
bucket A

$$$$
>  <MOLECULE>
COc1ccc(Cn2ncc3cc(S(=O)(=O)c4cc[nH]n4)ccc3c2=O)cn1 [Example 140]

>  <GROUP LABEL>
bucket B

$$$$
>  <MOLECULE>
O=c1c2ccc(S(=O)(=O)c3cn[nH]c3)cc2cnn1Cc1cnc2c(c1)CCO2 [Example 293]

>  <GROUP LABEL>
bucket C

$$$$
>  <MOLECULE>
C[C@H](O)c1cccc(Cn2ncc3cc(S(=O)(=O)c4cnn(C)c4)ccc3c2=O)n1 (single isomer, unassigned) [Example 278]

>  <GROUP LABEL>
bucket B

$$$$
>  <MOLECULE>
Nc1cccc(Cn2ncc3cc(S(=O)(=O)c4cccnc4)ccc3c2=O)c1 [Example 121]

>  <GROUP LABEL>
bucket C

$$$$
>  <MOLECULE>
COc1ccc(Cn2ncc3cc(S(=O)(=O)c4ccn(C(F)F)n4)ccc3c2=O)cn1 [Example 179]

>  <GROUP LABEL>
bucket A

$$$$
>  <MOLECULE>
COc1ccc(S(=O)(=O)c2ccc3c(=O)n(Cc4cccc(OC(F)F)c4)ncc3c2)cc1 [Example 40]

>  <GROUP LABEL>
bucket A

$$$$
>  <MOLECULE>
NC(=O)c1sccc1Cn1ncc2cc(S(=O)(=O)c3ccccc3)ccc2c1=O [Example 13]

>  <GROUP LABEL>
bucket B

$$$$
>  <MOLECULE>
COc1ccc(S(=O)(=O)c2ccc3c(=O)n(Cc4cc(F)cnc4O)ncc3c2)cc1 [Example 100]

>  <GROUP LABEL>
bucket C

$$$$
>  <MOLECULE>
COc1ccc(Cn2ncc3cc(S(=O)(=O)c4ccc(C)cc4)ccc3c2=O)cn1 [Example 150]

>  <GROUP LABEL>
bucket A

$$$$

---

SYSTEM TESTED: recombinant human PKM2 (Homo sapiens, UniProt P14618)
Construct: His (N); purchased R&D Systems
ASSAY EXPLANATION: Human PKM2 activation assay (Kinase-Glo Plus luminescent detection of generated ATP)
Type: biochemical
EXPERIMENTAL SETUP: recombinant human PKM2 activation; 4-parameter logistic fit; read-out: hPKM2 EC50
pEC50: −log10 of the molar value.
# pEC50 >= 7 gives rule met, anything below gives rule not met

>  <MOLECULE>
O=c1c2ccc(S(=O)(=O)c3ccncc3)cc2cnn1Cc1cc[nH]n1

>  <GROUP LABEL>
rule not met

$$$$
>  <MOLECULE>
Cn1cc(S(=O)(=O)c2ccc3c(=O)n(Cc4cccnc4O)ncc3c2)cn1

>  <GROUP LABEL>
rule not met

$$$$
>  <MOLECULE>
O=c1c2cnc(S(=O)(=O)c3cn[nH]c3)cc2cnn1Cc1ccc2c(n1)CCO2

>  <GROUP LABEL>
rule met

$$$$
>  <MOLECULE>
Cc1ccc(S(=O)(=O)c2ccc3c(=O)n(Cc4cc[nH]n4)ncc3c2)nc1

>  <GROUP LABEL>
rule not met

$$$$
>  <MOLECULE>
COc1ccc(Cn2ncc3cc(S(=O)(=O)c4cnn(CCO)c4)ccc3c2=O)nc1

>  <GROUP LABEL>
rule not met

$$$$
>  <MOLECULE>
N=[S@@](=O)(c1cn[nH]c1)c1ccc2c(=O)n(Cc3ccc4c(n3)CCO4)ncc2c1 (stereo in doubt)

>  <GROUP LABEL>
rule met

$$$$
>  <MOLECULE>
COc1ccc(F)c(Cn2ncc3cc(S(=O)(=O)c4cn[nH]c4)ccc3c2=O)n1

>  <GROUP LABEL>
rule not met

$$$$
>  <MOLECULE>
COc1ccc(Cn2ncc3cc(S(=O)(=O)c4cnc(OC)cn4)ccc3c2=O)cn1

>  <GROUP LABEL>
rule not met

$$$$
>  <MOLECULE>
COc1ccc(Cn2ncc3cc(S(=O)(=O)c4csc(C(N)=O)c4)ccc3c2=O)cn1

>  <GROUP LABEL>
rule met

$$$$
>  <MOLECULE>
Cn1ccc(S(=O)(=O)c2ccc3c(=O)n(Cc4cc[nH]n4)ncc3c2)n1

>  <GROUP LABEL>
rule not met

$$$$
>  <MOLECULE>
Cn1ccc(Cn2ncc3cc(S(=O)(=O)c4ccc(OC(F)F)cc4)ccc3c2=O)n1

>  <GROUP LABEL>
rule met

$$$$

---

SYSTEM TESTED: recombinant human PKM2 (Homo sapiens, UniProt P14618)
Construct: His (N); purchased R&D Systems
ASSAY EXPLANATION: Human PKM2 activation assay (Kinase-Glo Plus luminescent detection of generated ATP)
Type: biochemical
EXPERIMENTAL SETUP: recombinant human PKM2 activation; 4-parameter logistic fit; read-out: hPKM2 EC50
Recorded EC50, one value per entry.

>  <MOL>
Cn1ncc2ccc(Cn3ncc4cc(S(=O)(=O)c5ccccc5)ccc4c3=O)cc21

>  <EC50, nM>
150

$$$$
>  <MOL>
COc1ccc(Cn2ncc3cc(S(=O)(=O)c4cc[nH]n4)ccc3c2=O)nc1

>  <EC50, nM>
151

$$$$
>  <MOL>
COc1ccc(Cn2ncc3cc(S(=O)(=O)c4cccc5[nH]ncc45)ccc3c2=O)cn1

>  <EC50, nM>
123

$$$$
>  <MOL>
COc1ccc(S(=O)(=O)c2ccc3c(=O)n(Cc4cc(C(C)C)cnc4O)ncc3c2)cc1

>  <EC50, nM>
240

$$$$
